biological target: UniProt P50406
Readout Kind: pKi
# log scale: pKi equals minus log10 of the concentration in mol/L

Return reported pKi; argument: `CNc1nn2cc3c(nc2c1S(=O)(=O)c1ccccc1)CCN(C)C3`
8.49

###

Measured IC50 on 5-hydroxytryptamine receptor 6 (Homo sapiens) follows.
Sequence (P50406 whole entry): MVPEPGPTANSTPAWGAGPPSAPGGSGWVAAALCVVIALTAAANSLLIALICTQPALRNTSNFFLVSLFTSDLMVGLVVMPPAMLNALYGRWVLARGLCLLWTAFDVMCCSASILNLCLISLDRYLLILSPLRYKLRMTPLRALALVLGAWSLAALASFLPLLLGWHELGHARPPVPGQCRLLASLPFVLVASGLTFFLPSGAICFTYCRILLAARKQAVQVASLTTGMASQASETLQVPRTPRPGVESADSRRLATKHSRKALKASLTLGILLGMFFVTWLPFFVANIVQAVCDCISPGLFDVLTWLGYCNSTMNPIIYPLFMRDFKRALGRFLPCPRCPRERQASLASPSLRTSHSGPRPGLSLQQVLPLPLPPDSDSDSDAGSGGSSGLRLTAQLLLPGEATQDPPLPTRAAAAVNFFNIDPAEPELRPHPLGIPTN
Respond with the bare value in nM.

Fill in the recorded IC50 for this compound, with 5-hydroxytryptamine receptor 6 (Homo sapiens) as test system: `CNc1nn2cc3c(nc2c1S(=O)(=O)c1ccccc1)CCN(C)C3`
7.02

Now consider the entry below.
Fill in the recorded IC50 for this compound, with 5-hydroxytryptamine receptor 6 (Homo sapiens) as test system: `CNc1nn2c3c(cnc2c1S(=O)(=O)c1ccccc1)CN(C)CC3`
0.837
